- Method summary: label from the status in PepcDB records
Measured metric: protein production

# sequence LSANYAENLQAQQRSAQRLEHQAWLRTGQTQLAQQVLGQLTLPMLGENILRFFASYLGSVVGAVYVRDEHGRLVRVACYGLSTEEQAREQIESDHHGLLAQAVREGRLLRLEELPEDFYRLSSGLGSGLPRSALLMPATEDGQINGVIELGFLRPLQERDEELLERVGGNLGMSIESA ; its protein production = failed

Looking up MNLLNLFTYVIPIAICIILPIFIIVTHFQIKSLNKAVTSFNKGDRSNALEILSKLVKSPIKNVKANAYITRERIYFYSRDFELSLRDLLQAIKLRPKTINDVYSFALSYHILGEPERALKYFLRAVELQPNVGISYENLAWFYYLTGKYDKAIENFEKAISMGSTNSVYRSLGITYAKIGDYKKSEEYLKKALDAEPEKPSTHIYFSYLKRKTNDIKLAKEYALKAIELNKNNFDGYKNLAEVNLAEDDYDGFYKNLEIFLEKINFVTNGEDFNDEVYDKVKDNEKFKELIAKTKVIKFKDLGIEIDDKKILNGKFLV , I see its protein production listed as failed

All values here come from a protein production outcome set (Wang et al. 2014).
